Value source: patent US12528812B2

- target.system: Recombinant human JAK2 kinase domain protein (Residues 812-1132) (Homo sapiens)
- Sequence (O60674 812-1132): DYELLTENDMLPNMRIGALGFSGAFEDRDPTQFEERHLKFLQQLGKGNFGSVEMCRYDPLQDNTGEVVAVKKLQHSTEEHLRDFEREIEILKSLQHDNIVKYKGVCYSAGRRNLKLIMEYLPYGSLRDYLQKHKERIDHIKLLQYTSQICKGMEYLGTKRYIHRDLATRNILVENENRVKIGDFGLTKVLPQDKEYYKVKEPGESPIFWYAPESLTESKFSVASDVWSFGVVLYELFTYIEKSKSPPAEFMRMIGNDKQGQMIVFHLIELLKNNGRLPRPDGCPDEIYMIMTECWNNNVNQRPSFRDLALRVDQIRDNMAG
- assay.remarks: JAK2 biochemical assay (LabChip mobility shift, Ki)
- conditions: Biochem JAK2 Ki
pKi: −log10 of the molar value.
readout.name: pKi

{"molecule": "Cn1cc(NC(=O)c2cnn3cccnc23)c(-c2cc(Oc3cccc(CN)c3)ccc2OC(F)F)n1", "pKi": 9.37}
{"molecule": "CN1CCc2ccc(Oc3ccc(OC(F)F)c(-c4n[nH]cc4NC(=O)c4cnn5cccnc45)c3)cc2C1", "pKi": 9.60}
{"molecule": "Cn1cc(NC(=O)c2cnn3cccnc23)c(-c2cc(Oc3ccc(CN4CCCC4CO)cc3)ccc2OC(F)F)n1 (racemic)", "pKi": 9.25}
{"molecule": "Cn1cc(NC(=O)c2cnn3cccnc23)c(-c2cc(Oc3cnn(C4COC4)c3)ccc2OC(F)F)n1", "pKi": 9.31}

A. Cc1ccc(Oc2ccc(OC(F)F)c(-c3nn(C)cc3NC(=O)c3cnn4cccnc34)c2)cc1C(=O)N1CCNCC1
B. Cc1n[nH]cc1Oc1ccc(OC(F)F)c(-c2nn(C)cc2NC(=O)c2cnn3cccnc23)c1
# return whichever of A and B has the smaller pKi Refer to your chosen item by its label in the answer.
A
(A: 9.38, B: 9.70)

a. CN1CCC(n2cc(Oc3ccc(OC(F)F)c(-c4nn(C)cc4NC(=O)c4cnn5cccnc45)c3)cn2)C(O)C1 (centres unmarked) [Example 186]
b. Cn1cc(NC(=O)c2cnn3cccnc23)c(-c2cc(Oc3cnn(CCN4CCOCC4)c3)ccc2OC(F)F)n1
c. CN1CC(N(C)C(=O)c2cccc(Oc3ccc(OC(F)F)c(-c4nn(C)cc4NC(=O)c4cnn5cccnc45)c3)c2)C1
Falling order of pKi, please. Put the labels in the order asked and list them.
a, c, b
(a: 9.41, c: 9.10, b: 8.54)

I. Cn1cc(NC(=O)c2cnn3cccnc23)c(-c2cc(Oc3cnn(S(C)(=O)=O)c3)ccc2OC(F)F)n1
II. CN1CC(O)(c2cccc(Oc3ccc(OC(F)F)c(-c4nn(C)cc4NC(=O)c4cnn5cccnc45)c3)n2)C1
III. Cn1cc(NC(=O)c2cnn3cccnc23)c(-c2cc(Oc3cnn(C4CC(O)C4)c3)ccc2OC(F)F)n1 (centres unmarked) [Example 119]
IV. Cn1cc(NC(=O)c2cnn3cccnc23)c(-c2cc(Oc3ccc(CN4CCOCC4)cc3)ccc2OC(F)F)n1
Endpoint returns the given molecules ordered by ascending pKi. Put the labels in the order asked and list them.
IV, II, III, I
(IV: 8.54, II: 9.00, III: 9.28, I: 9.59)

P. CN1CCN(C(=O)Cc2ccc(Oc3ccc(OC(F)F)c(-c4nn(C)cc4NC(=O)c4cnn5cccnc45)c3)cc2)CC1
Q. Cn1cc(NC(=O)c2cnn3cccnc23)c(-c2cc(Oc3cccc(CN4CCO[C@H](CO)C4)c3)ccc2OC(F)F)n1 (stereo in doubt)
Please tell me which of the two, P or Q , has the higher reported pKi value. Refer to your chosen item by its label in the answer.
P
(P: 9.54, Q: 8.96)

I. Cn1cc(NC(=O)c2cnn3cccnc23)c(-c2cc(Oc3cnn(C4CCNCC4O)c3)ccc2OC(F)F)n1 (centres unmarked) [Example 183]
II. Cn1cc(NC(=O)c2cnn3cccnc23)c(-c2cc(Oc3cnn(CC4COC4)c3)ccc2OC(F)F)n1
Please tell me which of the two, I or II , has the higher reported pKi value. Refer to your chosen item by its label in the answer.
I
(I: 9.66, II: 9.42)
